SUBJECT OF TEST: PDE7A (Homo sapiens, UniProt Q13946)
Construct: cell lysate containing full length PDE7A, PDE7B and PDE1C enzyme
Sequence (Q13946 whole entry): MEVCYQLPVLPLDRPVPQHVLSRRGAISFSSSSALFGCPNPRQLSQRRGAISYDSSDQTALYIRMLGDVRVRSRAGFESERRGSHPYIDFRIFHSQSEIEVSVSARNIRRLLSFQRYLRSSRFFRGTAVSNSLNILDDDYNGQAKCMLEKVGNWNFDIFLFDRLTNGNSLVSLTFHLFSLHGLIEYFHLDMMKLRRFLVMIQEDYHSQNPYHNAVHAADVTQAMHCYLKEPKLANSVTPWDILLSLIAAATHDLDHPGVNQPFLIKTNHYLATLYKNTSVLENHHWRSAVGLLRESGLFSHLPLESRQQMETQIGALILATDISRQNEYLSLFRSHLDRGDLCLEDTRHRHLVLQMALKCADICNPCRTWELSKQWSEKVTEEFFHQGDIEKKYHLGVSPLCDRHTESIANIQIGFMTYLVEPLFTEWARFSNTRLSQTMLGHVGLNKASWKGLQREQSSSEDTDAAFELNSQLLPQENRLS
MEASUREMENT DESCRIPTION: PDE7A [3H]-cAMP scintillation proximity assay (SPA) enzyme inhibition
TEST CONDITIONS: full length PDE7A in cell lysate; ~25 nM cAMP; Ki from IC50 by Cheng-Prussof equation
From the text: The ability of the compounds of formula (I) to inhibit PDE7 and PDE1 may be measured using the following assay protocol. PDE7A, PDE7B and PDE1C enzymes catalyse the hydrolysis of 3′,5′-cyclic adenosine monophosphate (cAMP) to the 5′ adenosine monophosphate, 5′AMP. […] The yttrium silicate beads preferentially bind linear nucleotides, thus the product of the enzyme reaction, [^3H]-5′AMP binds to the bead to produce a light signal, which is detected by a scintillation counter. […]
QUANTITY MEASURED: Ki (nM)

Examples with their reported Ki follow.
Give the reported Ki for CS(=O)(=O)NC(=O)c1cccc(F)c1Oc1ccc(Cl)c2c1C1(CCCCC1)NC(=O)N2 (system: PDE7A (Homo sapiens, UniProt Q13946)).
2.3

Also check O=C(O)COc1ccccc1Oc1ccc(Cl)c2c1C1(CCCCC1)NC(=O)N2
0.48

I = O=C1Nc2c(Cl)ccc(Oc3c(Cl)cccc3C(=O)O)c2C2(CCCCC2)N1
II = O=C1Nc2c(Cl)ccc(Oc3c(F)cccc3-c3nn[nH]n3)c2C2(CCCC2)N1
I or II : whose Ki is greater? Identify your selection by its label.
I

----------
SUBJECT OF TEST: PDE7A (Homo sapiens)
Construct: cell lysate containing full length PDE7A, PDE7B and PDE1C enzyme
MEASUREMENT DESCRIPTION: PDE7A [3H]-cAMP scintillation proximity assay (SPA) enzyme inhibition
TEST CONDITIONS: full length PDE7A in cell lysate; ~25 nM cAMP; Ki from IC50 by Cheng-Prussof equation
QUANTITY MEASURED: Ki (nM)

Examples with their reported Ki follow.
Would you kindly share the measured Ki for O=C1Nc2c(Cl)ccc(-c3ccc(C(=O)O)c(F)c3)c2C2(CCCCC2)N1 ?
11

Also check O=C1Nc2c(Cl)ccc(Oc3c(Cl)cccc3-c3nn[nH]n3)c2C2(CCCC2)N1
5

Also check O=C1Nc2c(F)ccc(Oc3c(F)cccc3-c3nn[nH]n3)c2C2(CCCCC2)N1
0.3

Also check O=C1Nc2c(Cl)ccc(-c3cccc(C(=O)O)c3)c2C2(CCCCC2)N1
3.1

Also check O=C1Nc2c(Cl)ccc(Oc3c(F)cccc3-c3nn[nH]n3)c2C2(CCCCC2)N1
0.1

I = O=C1Nc2c(Cl)ccc(Oc3c(F)cccc3C(=O)O)c2C2(CCCCC2)N1
II = O=C1Nc2c(F)ccc(Oc3c(Cl)cccc3C(=O)O)c2C2(CCCCC2)N1
I or II : whose Ki is greater? Identify your selection by its label.
II
(II: 32 nM, I: 1.7 nM)

a = O=C1Nc2c(Cl)ccc(Oc3c(F)cccc3C(=O)O)c2C2(CCCC2)N1
b = O=C1Nc2c(Cl)ccc(Oc3c(F)cccc3-c3noc(=O)[nH]3)c2C2(CCCCC2)N1
c = O=C1Nc2c(Cl)ccc(-c3ccc(F)c(C(=O)O)c3)c2C2(CCCCC2)N1
# rank by Ki, ascending (min first) Return value: ordered labels per request.
b, c, a
